Reference for the values: patent US20240279318A1

TARGET OR SYSTEM: T1, AFP158/HLA-A*02:01 complex (human)
T1 construct: flowed over the chip in SPR; also called AFP158 pro
ASSAY REMARKS: SPR, scFv captured, pMHC in flow;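 further: complex injected at several concentrations over crude scFv, association then running-buffer dissociation, KD estimated from kinetic on- and off-rate constants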
REPORTED PROPERTY: Kd
In your response, put the unit directly after the numeric value.

Solved cases (2 shown):
LY93F (scFv, AS170036 VL1VH1 scFv mutein) scFv: QSALTQPRSVSGSPGQSVTISCAGTSSDVGSENYVSWYQQHPGKAPKLMIYQVNKRASGVPDRFSGSKSGNTASLTISGLQAEDEADYYCASFRSSDHNIVFGGGTKLTVLGGGGSGGGGSGGGGSEVQLVESGGGLVQPGGSLRLSCAASGFTFSSYAMSWVRQAPGKGLEWVSTINSGTGSPYYADSVKGRFTISRDNSKNTLYLQMNSLRAEDTAVYYCAKNFFDGSWFLGPPAMDYWGQGTLVTVSSHHHHHH ... 140 nM
LY34F (scFv, AS170036 VL1VH1 scFv mutein) scFv: QSALTQPRSVSGSPGQSVTISCAGTSSDVGSENFVSWYQQHPGKAPKLMIYQVNKRASGVPDRFSGSKSGNTASLTISGLQAEDEADYYCASYRSSDHNIVFGGGTKLTVLGGGGSGGGGSGGGGSEVQLVESGGGLVQPGGSLRLSCAASGFTFSSYAMSWVRQAPGKGLEWVSTINSGTGSPYYADSVKGRFTISRDNSKNTLYLQMNSLRAEDTAVYYCAKNFFDGSWFLGPPAMDYWGQGTLVTVSSHHHHHH ... 780 nM

Proceed to the following item.
Ask: Consider the binder LY93T (scFv, AS170036 VL1VH1 scFv mutein) scFv: QSALTQPRSVSGSPGQSVTISCAGTSSDVGSENYVSWYQQHPGKAPKLMIYQVNKRASGVPDRFSGSKSGNTASLTISGLQAEDEADYYCASTRSSDHNIVFGGGTKLTVLGGGGSGGGGSGGGGSEVQLVESGGGLVQPGGSLRLSCAASGFTFSSYAMSWVRQAPGKGLEWVSTINSGTGSPYYADSVKGRFTISRDNSKNTLYLQMNSLRAEDTAVYYCAKNFFDGSWFLGPPAMDYWGQGTLVTVSSHHHHHH and give its measured Kd.
Result: 840 nM
